The measured values listed here are drawn from the PolyMetriX glass transition set.

Criterion met means recorded glass transition temperature is 200 °C or above; Criterion not met means it is below 200 °C.

Consider the following illustrative entries.
{"Compound": "*Oc1ccc(OC(=O)c2ccc(-c3ccc(C(*)=O)cc3)cc2-c2ccccc2)cc1C (repeat unit)", "Group Label": "Criterion not met"}
{"Compound": "*CC(*)C(=O)OCCN(CC)c1ccc(/N=N/c2ccc([N+](=O)[O-])cc2)cc1 (repeat unit)", "Group Label": "Criterion not met"}
{"Compound": "*CCCCCCNC(=O)CCCCC(=O)N* (repeat unit) [Poly(hexamethylene adipamide)]", "Group Label": "Criterion not met"}
{"Compound": "*=NP(=NP(=NC(=*)Oc1ccccc1C(F)(F)F)(Oc1ccccc1C(F)(F)F)Oc1ccccc1C(F)(F)F)(Oc1ccccc1C(F)(F)F)Oc1ccccc1C(F)(F)F (repeat unit)", "Group Label": "Criterion not met"}
{"Compound": "*c1ccc(-c2nc3ccc(Oc4ccc5nc(*)c(-c6ccccc6)nc5c4)cc3nc2-c2ccccc2)cc1 (repeat unit)", "Group Label": "Criterion met"}
{"Compound": "*CCCCCCC(=O)O* (repeat unit)", "Group Label": "Criterion not met"}
{"Compound": "*CC(C)(C)COC(=O)Cc1ccc(C(=O)O*)cc1 (repeat unit)", "Group Label": "Criterion not met"}
{"Compound": "*c1ccc2c(c1)C(=O)N(C1CCC(CC3CCC(N4C(=O)c5ccc(C(*)(C(F)(F)F)C(F)(F)F)cc5C4=O)C(C)C3)CC1C)C2=O (repeat unit)", "Group Label": "Criterion met"}

Turning now to a further compound:
Inquiry: glass transition temperature >= 200 °C for *CC(*)(C)C(=O)OCCN(CC)c1ccc(/N=N/c2ccc(C#N)cc2)cc1 (repeat unit) ?
Reply text: Criterion not met

---

Recorded glass transition temperature values for a group of compounds are listed next.
Your answer is read as °C, so omit the unit and give the number.

Inquiry: Tell me its glass transition temperature given *c1ccc(Cc2ccc(N3C(=O)C4CCC(C5CCC6C(=O)N(*)C(=O)C6C5)CC4C3=O)cc2)cc1 (repeat unit) as the entry.
Reply text: 260.00

Inquiry: Consider the compound *c1ccc(Oc2ccc(P(=O)(c3ccccc3)c3ccc(Oc4ccc(-c5cc(*)[nH]n5)cc4)cc3)cc2)cc1 (repeat unit) . State its measured glass transition temperature.
Reply text: 296.00

Inquiry: Please supply the value of reported glass transition temperature for the item *=NP(=NP(=NC(=*)Oc1ccccc1)(Oc1ccccc1)Oc1ccccc1)(Oc1ccccc1)Oc1ccccc1 (repeat unit)
Reply text: 18.00

Inquiry: Read the entry *Oc1ccc(CC(NC(=O)CCc2ccc(OC(=O)COCC(*)=O)cc2)C(=O)OC(C)C)cc1 (repeat unit) and write its reported glass transition temperature.
Reply text: 80.00

Inquiry: Look up and report measured glass transition temperature for this entry: *C(=O)NCCN(CCNC(=O)c1ccc(N2C(=O)c3ccc(*)cc3C2=O)cc1)c1ccc(/C=C/c2ccc([N+](=O)[O-])cc2)cc1 (repeat unit)
Reply text: 178.00

Inquiry: Read off the recorded glass transition temperature for *c1ccc(Oc2cc3ccccc3cc2Oc2ccc(-n3c(=O)c4cc5c(=O)n(*)c(=O)c5cc4c3=O)cc2)cc1 (repeat unit)
Reply text: 316.00

Inquiry: Using known records, supply glass transition temperature for *Oc1ccc(NC(=O)c2cc(NC(=O)CCCCCN3C(=O)c4ccccc4C3=O)cc(C(=O)Nc3ccc(*)cc3)c2)cc1 (repeat unit)
Reply text: 200.00

---

Measure Name: glass transition temperature (°C)
Give the quantity in °C, number only.

{"Compound": "*CC(*)C(=O)OCC#N (repeat unit) [Poly(cyanomethyl acrylate)]", "Measure Name": "glass transition temperature", "Unit Info": "°C", "Recorded Number": 23}
{"Compound": "*CC(*)C(=O)CC (repeat unit) [Poly(vinyl ethyl ketone)]", "Measure Name": "glass transition temperature", "Unit Info": "°C", "Recorded Number": -60}
{"Compound": "*CC(*)Br (repeat unit) [Poly(vinyl bromide)]", "Measure Name": "glass transition temperature", "Unit Info": "°C", "Recorded Number": 100}

Please turn your attention to the following entry.
Inquiry: Name the recorded glass transition temperature of the item *CC(*)C(=O)NCCCCCCCC (repeat unit) [Poly(N-octyl acrylamide)] in your answer.
Reply text: -53

---

Use 200 °C as the dividing line for glass transition temperature, with the line itself on the met side and lower values as not met.

{"Molecule": "*CC(O)COc1ccc(C(C)(C)c2ccc(OCC(O)COc3cccc(C(=O)Nc4cccc(O*)c4)c3)cc2)cc1 (repeat unit)", "Group Label": "not met"}
{"Molecule": "*CCCCCC(=O)Oc1ccc(OC(=O)c2ccc3c(c2)C(=O)N(*)C3=O)cc1 (repeat unit)", "Group Label": "not met"}
{"Molecule": "*Oc1ccccc1C(=O)OC(=O)c1ccccc1OC(=O)C(CC)C(CC)C(*)=O (repeat unit)", "Group Label": "not met"}
{"Molecule": "*Oc1ccc(C2(c3ccc(OC(*)=O)cc3)CC(C)CC(C)(C)C2)cc1 (repeat unit)", "Group Label": "met"}
{"Molecule": "*Oc1ccc(C2(c3ccc(OC(*)=O)cc3)CC3CCC2C3)cc1 (repeat unit)", "Group Label": "met"}

Inquiry: Decide: glass transition temperature of *Oc1ccc(/C(=C/c2ccc(-c3ccc(/C=C(\c4ccccc4)c4ccc(OC(=O)c5ccc(C(*)=O)cc5)cc4)cc3)cc2)c2ccccc2)cc1 (repeat unit) >= 200 °C?
Reply text: met

Inquiry: Record *CC(*)(C)C(=O)OCCCCCCOc1ccc(C(=O)Oc2ccc(/N=N/c3ccc(F)cc3)c3ccccc23)cc1 (repeat unit) ; criterion: glass transition temperature no lower than 200 °C. Met?
Reply text: not met

---

Measure Name: glass transition temperature (°C)
Numbers only here, please. The scale is °C.

See these solved cases before continuing.
{"Compound": "*CCCC(=O)Oc1ccc(OC(=O)c2ccc3c(c2)C(=O)N(*)C3=O)cc1 (repeat unit)", "Measure Name": "glass transition temperature", "Recorded Number": 132.00}
{"Compound": "*Oc1ccc(C2(c3ccc(OC(=O)CCCCCCCCC(*)=O)cc3)c3ccccc3Cc3ccccc32)cc1 (repeat unit)", "Measure Name": "glass transition temperature", "Recorded Number": 134.00}

// moving on: another record for glass transition temperature
Inquiry: // fetch glass transition temperature given entry *Oc1ccc(-c2ccc(OC(=O)c3cc(OCCCc4ccccc4)c(C(*)=O)cc3OCCCc3ccccc3)cc2)cc1 (repeat unit)
Reply text: 72.00

---

glass transition temperature values, listed per item
Entry rule: numbers only, all in °C.

Below: 3 compounds and their reported glass transition temperature.
{"Compound": "*c1ccc(Oc2ccc(C(=O)c3ccc(Oc4ccc(-c5nc(-c6ccccc6)[nH]c5*)cc4)cc3)cc2)cc1 (repeat unit)", "glass transition temperature (°C)": 259.00}
{"Compound": "*Oc1ccc(CC(NC(=O)Cc2ccc(OC(=O)CC(C)CCC(*)=O)cc2)C(=O)OCCCCCCCC)cc1 (repeat unit)", "glass transition temperature (°C)": 30.00}
{"Compound": "*c1ccc2[nH]c(*)nc2c1 (repeat unit)", "glass transition temperature (°C)": 398.00}

Inquiry: Check the records and state glass transition temperature for *c1ccc(C(=O)OCCCCCCCCOc2ccc(/C=C3\CCC/C(=C\c4ccc(OCCCCCCCCOC(=O)c5ccc(-c6nnc(*)o6)cc5)cc4)C3=O)cc2)cc1 (repeat unit)
Reply text: 59.00

Inquiry: Entry *CC(*)(C)C(=O)OCCCCOc1ccc(OC(=O)c2ccc(-c3ccc(OC)cc3)cc2)cc1 (repeat unit) needs its glass transition temperature filled in; supply it.
Reply text: 77.00

Inquiry: Output glass transition temperature of *c1ccc(Oc2ccc3ccccc3c2-c2c(Oc3ccc(N4C(=O)c5ccc(NC(=O)Nc6ccc(-c7cc(-c8ccc(-c9ccccc9)cc8)cc(-c8ccc(NC(=O)Nc9ccc%10c(c9)C(=O)N(*)C%10=O)cc8)n7)cc6)cc5C4=O)cc3)ccc3ccccc23)cc1 (repeat unit)
Reply text: 302.00

Inquiry: Fill in glass transition temperature for record *CCC1CC(=O)N(*)C1=O (repeat unit)
Reply text: 131.00

Inquiry: # return recorded glass transition temperature for input *Oc1ccc(OC(=O)CCCCC(*)=O)cc1 (repeat unit)
Reply text: 90.00

---

Measure Name: glass transition temperature (°C)
Response body: numeric value in °C, unit text excluded.

{"Compound": "*C(=O)Nc1ccc(Oc2c(C)cc(C(C)(C)c3cc(C)c(Oc4ccc(NC(=O)c5ccc6c(c5)C(=O)N(c5ccc(Oc7ccc(C8(c9ccc(Oc%10ccc(N%11C(=O)c%12ccc(*)cc%12C%11=O)cc%10)cc9)CC9CC8C8CCCC98)cc7)cc5)C6=O)cc4)c(C)c3)cc2C)cc1 (repeat unit)", "Measure Name": "glass transition temperature", "Recorded Number": 276.00}
{"Compound": "*CC(O)COc1ccc(C(C)(C)c2ccc(OCC(O)COc3c(C)cc(C(C)(C)c4cc(C)c(O*)c(C)c4)cc3C)cc2)cc1 (repeat unit)", "Measure Name": "glass transition temperature", "Recorded Number": 100.00}
{"Compound": "*c1ccc(Cc2ccc(N3C(=O)c4c(c(-c5ccccc5)c(-c5ccc(Oc6ccc(-c7c(-c8ccccc8)c8c(c(-c9ccccc9)c7-c7ccccc7)C(=O)N(*)C8=O)cc6)cc5)c(-c5ccccc5)c4-c4ccccc4)C3=O)cc2)cc1 (repeat unit)", "Measure Name": "glass transition temperature", "Recorded Number": 356.00}
{"Compound": "*CC(*)(C)C(=O)OCCCCCCCCCCOc1ccc(OC(=O)c2ccc(OCCCCCC)cc2)cc1 (repeat unit)", "Measure Name": "glass transition temperature", "Recorded Number": 41.00}
{"Compound": "*CCC1C(=O)N(CCCCCCCCCCCCCC)C(=O)C1* (repeat unit)", "Measure Name": "glass transition temperature", "Recorded Number": 62.40}

Let us move to another entry and its glass transition temperature.
Inquiry: State its glass transition temperature: *C(=O)c1ccc2c(c1)C(=O)N(c1cccc(NC(=O)c3cccc(C(=O)Nc4cccc(N5C(=O)c6ccc(*)cc6C5=O)c4)c3)c1)C2=O (repeat unit)
Reply text: 204.00
